Target: T1, Hof1, Q05080
T1 sequence (Q05080 590-669, looked up): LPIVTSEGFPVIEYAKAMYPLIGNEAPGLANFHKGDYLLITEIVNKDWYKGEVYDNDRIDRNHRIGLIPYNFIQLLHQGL
Test: SPOT array
Conditions: median of control spots 4086
Attribute Measured: SPOT intensity
Respond with the number and no other words.

Below are worked cases with known answers.
PSRRAPLQLPQLVNK : 0
QRKSLRRPTLSKPAV : 4
SRYRRPLTLLLLKPF : 15

// SPOT intensity lookup, key: QQNRPLPQLPNRNNR
112

Entry to check: NNQRRKPLLLNIGDH
18

Next record, please: RRASLFPRDPKRLRP
21

Lookup PIVPSSPAPPLPLSG
0

Query LFMKGTPEFPKSGFS next
0

Try YVRRRPRVRLEPLLS next.
20

Now give it for SKSRLLIELPEGFFT too.
0

Now this one: LKPPIGRPPKFPKSP
0

Also need LSKRLPLRFPEHTSS , thanks.
25

Also check NILKRRPLKLEAPSK
14

What do we get for RRRIAYPFYPFKKLG ?
8

Okay, and RNNRPVPPPPPMRTT ?
0
